# Assay system: Probable G-protein coupled receptor 34 (Mus musculus, UniProt Q9R1K6)
# Sequence (Q9R1K6 whole entry, the tested form may be a part): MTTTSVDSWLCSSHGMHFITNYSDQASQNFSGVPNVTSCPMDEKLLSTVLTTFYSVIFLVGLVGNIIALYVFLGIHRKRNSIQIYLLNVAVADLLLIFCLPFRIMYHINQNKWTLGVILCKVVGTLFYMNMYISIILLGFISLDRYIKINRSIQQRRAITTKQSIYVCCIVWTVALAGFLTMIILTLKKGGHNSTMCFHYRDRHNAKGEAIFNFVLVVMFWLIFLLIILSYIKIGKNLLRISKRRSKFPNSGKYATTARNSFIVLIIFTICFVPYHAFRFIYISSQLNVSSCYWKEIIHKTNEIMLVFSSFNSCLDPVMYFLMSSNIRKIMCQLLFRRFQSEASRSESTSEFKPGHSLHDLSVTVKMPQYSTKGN
# Test name: Agonist activity at mouse GPR34 expressed in HEK293 cells co-transfected with AP-TGFalpha/Galphaq/i1 assessed as induction of ectodomain shedding of membrane bound AP-TGFalpha after 1 hr by p-NPP substrate based microplate reader analysis
# Assay type: cell-based
# Condition info: read-out: EC50
pEC50: −log10 of the molar value.
Reported property: pEC50

Answered examples (3):
[
  {
    "Molecule": "CCCCCCCC/C=C\\CCCCCCCC(=O)OC[C@@H](C)OP(=O)(O)OC[C@H](N)C(=O)O",
    "Numeric value": 7.62
  },
  {
    "Molecule": "CCCCCCCC/C=C\\CCCCCCCC(=O)OC[C@H](C)OP(=O)(O)OC[C@H](N)C(=O)O",
    "Numeric value": 6.77
  },
  {
    "Molecule": "CCCCCCCC/C=C\\CCCCCCCC(=O)OCCCCOP(=O)(O)OC[C@H](N)C(=O)O",
    "Numeric value": 6.49
  }
]

a. C#CCOC[C@H](COC(=O)CCCCCCC/C=C\CCCCCCCC)OP(=O)(O)OC[C@H](N)C(=O)O
b. CCCCCCCC/C=C\CCCCCCCC(=O)OC[C@@H](COCc1ccccc1)OP(=O)(O)OC[C@H](N)C(=O)O
c. CCCCCCCCCCCOc1ccccc1CCC(=O)OC1COCC[C@H]1OP(=O)(O)OC[C@H](N)C(=O)O (single isomer, unassigned)
d. CCCCCCCC/C=C\CCCCCCCC(=O)OC[C@@H](COCCC)OP(=O)(O)OC[C@H](N)C(=O)O
e. CCCCCCCCCCCOc1ccccc1CCC(=O)O[C@@H]1COCCC1OP(=O)(O)OC[C@H](N)C(=O)O (single isomer, unassigned)
Task item: Which order do these items take when sorted by rising pEC50? List them. A ranking is expressed here by listing the labels in the requested order.
Reply: b, e, a, d, c
